Recorded measurements of E1/2 vs. SCE (mV), one per entry
method.description: Polarographic half-wave potential (first wave reduction)
Type: physicochemical
experimental.conditions: 0.1 M phosphate buffer pH 7.55, 25° C.

molecule | E1/2 vs. SCE (mV)
CC(c1c[n+](C)ccn1)S(=O)(=O)[O-] (stereo not shown) | -701
COC(=O)CCc1c[n+](C)ccn1.[I-] | -685
Cc1c[n+](C)ccn1 | -696
CCC(O)Cc1c[n+](C)ccn1.[I-] (stereo not shown) | -680
CC(O)c1c[n+](C)ccn1 (stereo not shown) | -699
C[n+]1ccnc(C(C)(C)[N+](=O)[O-])c1.[I-] | -701
C[n+]1ccnc(CS(=O)(=O)[O-])c1 | -690
COC(=O)c1c[n+](C)ccn1 | -390
Cc1c[n+](CCCS(=O)(=O)[O-])c(C)cn1 | -700
C[n+]1ccnc(CCO)c1.[I-] | -683
C[n+]1ccnc(C(CC(O)CO)CC(O)CO)c1 (stereo not shown) | -715
Cc1c[n+](C)cc(CO)n1.[I-] | -738
CC(=O)NCCc1c[n+](C)ccn1.[I-] | -681

====

target.system: nitrogenase (Azotobacter vinelandii)
Construct: the nitrogenase sample was prepared from a culture of Azotobacter vinelandii; endogenous in cells; host or cells: Azotobacter vinelandii culture; French press lysate, 10,000 x g supernatant (crude)
method.description: Chloroplast-coupled evolution of hydrogen by nitrogenase in the absence of substrate
Assay type: biochemical
experimental.conditions: Table II; hydrogen evolution
Recorded measurements of ACTIVITY RELATIVE TO FERREDOXIN (%), one per entry

compound | ACTIVITY RELATIVE TO FERREDOXIN (%)
C[n+]1ccnc(CCC(O)CO)c1.[I-] (centres unmarked) | 86
C[n+]1ccnc(CS(C)(=O)=O)c1 | 5
C[n+]1ccnc2ccccc21 | 0
C[n+]1ccnc(CS(=O)(=O)[O-])c1 | 140
O=C(O)CC[n+]1ccncc1.[Br-] [Compound 800, 1-(2-Carboxyethyl)pyrazinium bromide] | 28
C[n+]1ccnc(C(N)=O)c1 | 0
COC(=O)c1c[n+](C)ccn1 | 0
CC(O)c1c[n+](C)ccn1 (centres unmarked) | 64

====

Recorded measurements of ACTIVITY RELATIVE TO FERREDOXIN (%), one per entry
target.system: nitrogenase (Azotobacter vinelandii, UniProt P00459)
Construct: the nitrogenase sample was prepared from a culture of Azotobacter vinelandii; endogenous in cells; host or cells: Azotobacter vinelandii culture; French press lysate, 10,000 x g supernatant (crude)
Sequence (P00459 2-290 limits assumed): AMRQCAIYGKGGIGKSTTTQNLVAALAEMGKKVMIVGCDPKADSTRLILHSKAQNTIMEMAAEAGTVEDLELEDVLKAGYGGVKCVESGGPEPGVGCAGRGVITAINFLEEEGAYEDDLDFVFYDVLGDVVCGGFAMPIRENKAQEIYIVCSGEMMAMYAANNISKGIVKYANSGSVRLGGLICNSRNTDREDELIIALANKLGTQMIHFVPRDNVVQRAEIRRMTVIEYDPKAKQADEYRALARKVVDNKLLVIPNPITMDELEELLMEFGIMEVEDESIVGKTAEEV
method.description: Chloroplast-coupled evolution of hydrogen by nitrogenase in the absence of substrate
Type: biochemical
experimental.conditions: Table II; hydrogen evolution

compound | ACTIVITY RELATIVE TO FERREDOXIN (%)
Cc1c[n+](C)cc(CO)n1.[I-] | 74
C[n+]1ccnc(CCC(=O)O)c1.[I-] | 45
C[n+]1ccnc(CCC(N)=O)c1 | 36
C[n+]1ccnc(C(O)CO)c1.[I-] (stereo not shown) | 98
Cc1cnc(CS(=O)(=O)[O-])c[n+]1C | 161
C[n+]1ccnc(CC(C(O)CO)S(=O)(=O)[O-])c1 (stereo not shown) | 73
CCC(Cc1c[n+](C)ccn1)S(=O)(=O)[O-] (stereo not shown) | 73

====

target.system: nitrogenase (Azotobacter vinelandii)
Construct: the nitrogenase sample was prepared from a culture of Azotobacter vinelandii; endogenous in cells; host or cells: Azotobacter vinelandii culture; French press lysate, 10,000 x g supernatant (crude)
method.description: Chloroplast-coupled reduction of acetylene to ethylene by nitrogenase (electron carrier bioassay of Benemann)
Format: biochemical
experimental.conditions: Table I; illuminated spinach chloroplasts; synthetic carriers 2 mM, clostridial ferredoxin 0.2 mM

molecule | ACTIVITY (nmoles C2 H4 /mg protein/min)
O=C(O)CC[n+]1ccncc1.[Br-] [Compound 800, 1-(2-Carboxyethyl)pyrazinium bromide] | 6.8 nmoles C2 H4 /mg protein/min
C[n+]1ccnc(C(=O)O)c1 | 0.0 nmoles C2 H4 /mg protein/min
C[n+]1ccnc(C(N)=O)c1 | 0.0 nmoles C2 H4 /mg protein/min
CCc1c[n+](C)ccn1 | 0.3 nmoles C2 H4 /mg protein/min
CCC(=O)Cc1c[n+](C)ccn1 [Compound 3500, 1-Methyl-3-(2-oxybutyl)pyrazinium iodide] | 0.7 nmoles C2 H4 /mg protein/min
CCC(Cc1c[n+](C)ccn1)S(=O)(=O)[O-] (stereo not shown) | 12.8 nmoles C2 H4 /mg protein/min
Cc1c[n+](C)cc(CS(=O)(=O)[O-])n1 | 13.4 nmoles C2 H4 /mg protein/min
